This collection of values is drawn from paper PMC10531311.

Tgt: human adenosine A2AR (Homo sapiens, UniProt P29274)
Construct: expressed in transfected cells; host or cells: CHO cells
Sequence (P29274 whole entry): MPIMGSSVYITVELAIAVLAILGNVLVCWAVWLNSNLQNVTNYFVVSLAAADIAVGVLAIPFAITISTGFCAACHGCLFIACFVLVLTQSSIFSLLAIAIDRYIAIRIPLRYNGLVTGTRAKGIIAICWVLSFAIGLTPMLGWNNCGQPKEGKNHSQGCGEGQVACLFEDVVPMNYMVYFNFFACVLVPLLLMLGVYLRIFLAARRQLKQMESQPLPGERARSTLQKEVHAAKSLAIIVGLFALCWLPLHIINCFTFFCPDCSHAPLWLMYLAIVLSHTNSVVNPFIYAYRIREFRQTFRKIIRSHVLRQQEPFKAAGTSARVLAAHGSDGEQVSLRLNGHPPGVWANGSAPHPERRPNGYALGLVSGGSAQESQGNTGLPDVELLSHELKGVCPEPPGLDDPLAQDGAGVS
Assay summary: Radioligand binding at human adenosine A2A receptor vs. [3H]MSX-2
Test conditions: human recombinant receptor in CHO cells; read-out: A2AR vs. [³H]MSX-2 Ki ± SEM
Experimental endpoint: pKi
Please express pKi as -log10 of the molar concentration.

Use these answered entries as a reference point.
{"Compound structure string": "C#CCn1c(=O)c2c(nc(NCc3ccccc3F)n2C)n(C2CC2)c1=O", "pKi": 6.41}
{"Compound structure string": "CCCn1c(=O)c2c(nc(NCc3c(F)cccc3Cl)n2C)n(C)c1=O", "pKi": 6.91}
{"Compound structure string": "CCCn1c(=O)c2c(nc(NCc3cccc(OC)c3)n2C)n(C)c1=O", "pKi": 6.22}
{"Compound structure string": "C#CCn1c(=O)c2c(nc(NCc3c(F)cccc3Cl)n2C)n(C)c1=O", "pKi": 7.21}
{"Compound structure string": "CCCn1c(=O)c2c(nc(NCc3cccc(Br)c3)n2C)n(C)c1=O", "pKi": 6.60}
{"Compound structure string": "C#CCn1c(=O)c2c(nc(NCc3c(F)cccc3Cl)n2C)n(C2CC2)c1=O", "pKi": 6.69}
{"Compound structure string": "C#CCn1c(=O)c2c(nc(NCc3ccccc3Cl)n2C)n(C)c1=O", "pKi": 7.02}

Turning now to a further compound:
For the compound shown here, `C#CCn1c(=O)c2c(nc(NCc3ccccc3Cl)n2C)n(C2CC2)c1=O` , give the reported pKi.
6.51
